Field: IC50. Provide a value for each of the molecules that follow.
Target: UniProt:Q72547
Measurement Protocol: Dose required to inhibit HIV-1 recombinant reverse transcriptase (rRT) activity by 50%.
One number for each entry, in µM.

Known results for molecules:
INSERT INTO measurements (molecule, target, number) VALUES
  ('Cc1c(O)nc(SC2CCCC2)nc1Cc1ccccc1', 'UniProt:Q72547', 3.4),
  ('CC(C)CSc1nc(O)cc(Cc2ccccc2)n1', 'UniProt:Q72547', 9.4),
  ('Oc1cc(Cc2ccccc2)nc(SC2CCCCC2)n1', 'UniProt:Q72547', 3),
  ('Cc1cccc(Cc2nc(SC3CCCC3)nc(O)c2C)c1', 'UniProt:Q72547', 3.4);

Ask | Annotate the molecule CCC(C)Sc1nc(O)cc(Cc2ccccc2)n1 (configuration not stated) with its measured IC50.
Reply | 2.7
